Please respond with reported activity at 10 µg/mL for every item in the list.
Test system: K562 ALDH (−) fraction (general cancer cells)
experimental.details: Cancer stem-cell selective inhibitory action against chronic myelocytic leukemia cells, ALDH (−) fraction, CellTiter-Glo
Format: cell-based, Human
stated.conditions: Homo sapiens, 10 μg/ml, 24 hours, relative to 0.1% DMSO, read-out: ALDH(−) (growth rate)
Answers are plain numbers, in %.

# batch size: 7; output activity at 10 µg/mL per entry
1. CCN1c2ccc(/C=C/C3=[N+](C)c4ccc5ccccc5c4C3(C)C)cc2C2CCCC21 (stereo not shown)
2. CC[N+]1=C(/C=c2\s/c(=C/c3ccc4c(c3)C3CCCC3N4c3ccccc3)c(=O)n2CC(=O)O)C(C)(C)c2ccccc21 (stereo not shown)
3. CCn1c2ccccc2c2cc(/C=C/C3=[N+](C)c4ccc5ccccc5c4C3(C)C)ccc21
4. CCN1c2ccc(/C=C/C3=[N+](CC)c4ccc(OC)cc4C34CCCCC4)cc2C2CCCC21 (stereo not shown)
5. O=C(O)Cn1c(=O)/c(=C\c2ccc3c(c2)C2CCCC2N3c2ccccc2)s/c1=C1/SC(=S)N(Cc2ccccc2)C1=O (stereo not shown) [compound 5, reference compound]
6. COc1ccc(N2c3ccc(/C=C/c4sc5ccccc5[n+]4CC(=O)O)cc3C3CCCC32)cc1 (stereo not shown)
7. CCn1c2ccccc2c2cc(/C=c3/s/c(=C\C4=[N+](CC)c5ccccc5C4(C)C)n(CC(=O)O)c3=O)ccc21

[13, 26, 13, 32, 90, 101, 25]

====

Please respond with reported Excitation wavelength λex for every item in the list.
experimental.details: Measurement of fluorescent property of compound (spectrofluorometer)
Type: physicochemical
stated.conditions: 5 μM DMSO solution
Numbers only, in nm.

Example entries begin here.
[[record]]
compound = "CC[N+]1=C(/C=c2\\s/c(=C/c3ccc4c(c3)C3CCCC3N4c3ccccc3)c(=O)n2CC(=O)O)C(C)(C)c2ccccc21 (centres unmarked) [Compound 15]"
quantitative_result = 568

[[record]]
compound = "CCN1c2ccc(/C=C/C3=[N+](CC)c4ccc(OC)cc4C34CCCCC4)cc2C2CCCC21 (centres unmarked) [Compound 8]"
quantitative_result = 586

[[record]]
compound = "CCN1c2ccc(/C=C/C3=[N+](C)c4ccccc4C3(C)C)cc2C2CCCC21 (centres unmarked) [Compound 34]"
quantitative_result = 575

[[record]]
compound = "COc1ccc(N2c3ccc(/C=C/C4=[N+](C)c5ccccc5C4(C)C)cc3C3CCCC32)cc1 (centres unmarked) [Compound 11]"
quantitative_result = 614

[[record]]
compound = "CCn1c2ccccc2c2cc(/C=C/C3=[N+](C)c4ccccc4C3(C)C)ccc21 [Compound 36]"
quantitative_result = 488

[[record]]
compound = "CC1(C)C(/C=C/c2ccc3c(c2)C2CCCC2N3c2ccc(C=C(c3ccccc3)c3ccccc3)cc2)=[N+](CCC(=O)O)c2ccccc21 (centres unmarked) [Compound 31]"
quantitative_result = 611

[[record]]
compound = "COc1ccc(N2c3ccc(/C=C/c4sc5ccccc5[n+]4CC(=O)O)cc3C3CCCC32)cc1 (centres unmarked) [Compound 33]"
quantitative_result = 560


Turning to the following compound.
Quick one: give measured Excitation wavelength λex for CCn1c2ccccc2c2cc(/C=c3/s/c(=C\C4=[N+](CC)c5ccccc5C4(C)C)n(CC(=O)O)c3=O)ccc21 [Compound 20]
493
